Tested on: glycogen synthase kinase-3 (GSK3A per assay name; protocol says GSK3B)
ASSAY REMARKS: GSK3 binders on small-molecule microarrays, primary screen, biochemical, small-molecule microarray, 635 nm fluorescence, GSK3A (AID 1103); further: the record names both GSK3A and GSK3B
RUN PARAMETERS: small-molecule microarray binding, fluorescence 635 nm; higher = more signal
EXPERIMENTAL ENDPOINT: composite z-score

Example cases with answers are listed next.
1) COC(=O)[C@@]1(CCS(=O)(=O)c2ccccc2)N=C(c2ccc(OCCCO)cc2)O[C@H]1c1ccccc1N=[N+]=[N-] | 1.29
2) C=CCNC(=O)[C@H]1[C@@H]2C(=O)O[C@@H](c3ccccc3)[C@@H](c3ccccc3)N2[C@@H](c2ccccc2OCCO)[C@]12C(=O)N(C(=O)OCCOC)c1ccccc12 | 1.28
3) CN(C)C(=O)[C@]1(Cc2ccccc2CN=[N+]=[N-])N=C(c2ccc(OCCCO)cc2)O[C@@H]1c1ccccc1N=[N+]=[N-] | 0.631
4) COc1ccc([Si](C)(C)[C@H]2[C@H](CCO)O[C@@]3(C(=O)N(Cc4ccc(N5CCOC5=O)cc4)c4ccccc43)[C@@H]2C)cc1 | -0.155

Ask: Quick one: composite z-score for C[C@@H](OCc1ccccc1)C1NC(=O)[C@@]23C(=O)N[C@@H](Cc4ccccc4)C2[C@H](C)[C@@]2(C)O[C@H]2C3/C=C/C/C=C\CNC(=O)[C@H](Cc2ccccc2)NC1=O (some centres undefined) ?
Result: 0.297

Ask: Which composite z-score is reported for this compound? CCOC(=O)C[C@H]1[C@H](OC(=O)Cc2ccc3c(c2)OCO3)[C@@H](NC(=O)c2ccccc2)c2cc(OCCCO)ccc2N1C(=O)Cc1ccc(OC)cc1
Result: 0.227

Ask: Look at this compound and give its reported composite z-score. COc1ccc(NC(=O)O[C@H]2[C@H](OC(=O)Nc3ccc4c(c3)OCO4)[C@H](OC(=O)Nc3ccc4c(c3)OCO4)[C@@H](OC)O[C@@H]2CO)cc1
Result: 1.23

Ask: Name the reported composite z-score value associated with the compound CC#CCO[Si](C#CCCCCCC)(C(C)C)C(C)C
Result: -0.719

Ask: Form field: reported composite z-score of COc1ccc(CCNC(=O)[C@@]2(Sc3ccc(C)cc3)CC(=O)N(C(C)C)[C@@H]2c2ccc(CO)cc2)cc1
Result: -0.897

Ask: Param item = COCCCNC(=O)[C@@H]1c2ccccc2C(=O)N(C2CCCCC2)[C@H]1c1ccc(CO)cc1 ; retrieve measured composite z-score.
Result: -1.82

Ask: Return reported composite z-score; argument: COC(=O)[C@]1(CO)N=C(c2ccc(OCCCO)cc2)O[C@@H]1c1ccccc1CN=[N+]=[N-]
Result: 0.421

----------
SYSTEM: Torsin-1A (Homo sapiens) (UniProt O14656)
Sequence (O14656 whole entry, looked up): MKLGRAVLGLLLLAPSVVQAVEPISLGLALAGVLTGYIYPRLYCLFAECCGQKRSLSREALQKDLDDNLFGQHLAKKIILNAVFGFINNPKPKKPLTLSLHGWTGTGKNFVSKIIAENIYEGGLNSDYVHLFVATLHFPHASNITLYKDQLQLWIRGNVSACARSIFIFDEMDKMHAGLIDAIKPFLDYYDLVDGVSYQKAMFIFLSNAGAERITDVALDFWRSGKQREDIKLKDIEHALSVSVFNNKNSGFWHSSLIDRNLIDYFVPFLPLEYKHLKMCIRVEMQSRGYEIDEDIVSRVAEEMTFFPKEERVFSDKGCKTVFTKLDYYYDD
ASSAY REMARKS: small-molecule binders of mutant TOR1A in lysate, primary screen, cell lysate, small-molecule microarray, COS7 lysate, 635/667 nm fluorescence (AID 1150);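 further: score pools 667 nm emission and signal to noise measuring lysate protein binding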
RUN PARAMETERS: COS7 hTOR1A mutant lysate, 635 nm fluorescence, higher = more signal
EXPERIMENTAL ENDPOINT: composite z-score
Just the number, please, no unit attached.

Illustrative cases are given below, each with its answer.
1. O=C1C2C=CC(C(O)C(c3ccccc3)c3ccccc3)N(Nc3ccccc3)C2C(=O)N1c1ccccc1 (stereo not given) | 0.984
2. Cc1c(NC(=O)/C(C#N)=C/c2ccc(Cl)cc2)c(=O)n(-c2ccccc2)n1C | 0.407
3. CCCCC(O)C1C=CC2C(=O)N(C)C(=O)C2N1Nc1ccccc1 (stereo not given) | 0.0531
4. CCCCN1CC=CC23O[C@@H]4C=CCOC(=O)[C@@H]4[C@H]2C(=O)N(CCO)[C@@H]3C1=O (stereo not given in full) | -0.243
5. C=C(/C(=C/C[C@H](OC(=O)c1ccncc1)c1ccccc1OCCO)c1cc(C(=O)OC)ccc1OC)C(C)C | 0.441

Ask: GET /values?readout=composite z-score&item= CCOC(=O)C1=CC[C@@H](c2ccc(F)cc2)N(S(=O)(=O)c2ccc(C)cc2)[C@H]1c1ccc([N+](=O)[O-])cc1
Result: 0.599

Ask: Give its composite z-score value. Item: CCCCCN1CC=CC23O[C@@H]4C=CCOC(=O)[C@@H]4[C@H]2C(=O)N(CCCCCO)[C@@H]3C1=O (stereo not given in full)
Result: 2.16

Ask: I have this compound here, COc1ccc(CCNC(=O)[C@@]2(Sc3ccc(C)cc3)CC(=O)N(C(C)C)[C@@H]2c2ccc(CO)cc2)cc1 , and I need its recorded composite z-score.
Result: 0.122
